Cited source for all entries: paper PMC7753147

# System: gephE
# TEST PROTOCOL: µSPOT peptide microarray binding assay with recombinant gephE
# MEASUREMENT SETUP: µSPOT peptide microarray, GlyRβ full positional scan, recombinant gephE; intensity normalised to wild-type sequence DLRSNDFSIVGSLPR (=1)
Kindly supply the reported gephE Binding Intensity [norm.] values for the records listed here.
State just the number; it will be interpreted in norm..

# input Item DLCSNDFSIVGSLPR [GlyRβ_Full_Positional_Scan_057] has what recorded gephE Binding Intensity [norm.]?
# output 0.88

# input Can you handle DLRVNDFSIVGSLPR [GlyRβ_Full_Positional_Scan_066] next?
# output 0.91

# input Note, next up: DLFSNDFSIVGSLPR [GlyRβ_Full_Positional_Scan_047]
# output 0.89
